Recorded measurements of inhibition at 1 µM, one per entry
molecular target: panel of 255 wild-type kinases (Homo sapiens, UniProt P21709); assay: Kinase panel profiling at 1 µmol/L (MSA or IMAP), percentage inhibition; type: biochemical; conditions: kinase EPHA1; 1 µmol/L single concentration; read-out: %-inhibition at 1 µmol/L, EPHA1
Sequence (P21709 26-976): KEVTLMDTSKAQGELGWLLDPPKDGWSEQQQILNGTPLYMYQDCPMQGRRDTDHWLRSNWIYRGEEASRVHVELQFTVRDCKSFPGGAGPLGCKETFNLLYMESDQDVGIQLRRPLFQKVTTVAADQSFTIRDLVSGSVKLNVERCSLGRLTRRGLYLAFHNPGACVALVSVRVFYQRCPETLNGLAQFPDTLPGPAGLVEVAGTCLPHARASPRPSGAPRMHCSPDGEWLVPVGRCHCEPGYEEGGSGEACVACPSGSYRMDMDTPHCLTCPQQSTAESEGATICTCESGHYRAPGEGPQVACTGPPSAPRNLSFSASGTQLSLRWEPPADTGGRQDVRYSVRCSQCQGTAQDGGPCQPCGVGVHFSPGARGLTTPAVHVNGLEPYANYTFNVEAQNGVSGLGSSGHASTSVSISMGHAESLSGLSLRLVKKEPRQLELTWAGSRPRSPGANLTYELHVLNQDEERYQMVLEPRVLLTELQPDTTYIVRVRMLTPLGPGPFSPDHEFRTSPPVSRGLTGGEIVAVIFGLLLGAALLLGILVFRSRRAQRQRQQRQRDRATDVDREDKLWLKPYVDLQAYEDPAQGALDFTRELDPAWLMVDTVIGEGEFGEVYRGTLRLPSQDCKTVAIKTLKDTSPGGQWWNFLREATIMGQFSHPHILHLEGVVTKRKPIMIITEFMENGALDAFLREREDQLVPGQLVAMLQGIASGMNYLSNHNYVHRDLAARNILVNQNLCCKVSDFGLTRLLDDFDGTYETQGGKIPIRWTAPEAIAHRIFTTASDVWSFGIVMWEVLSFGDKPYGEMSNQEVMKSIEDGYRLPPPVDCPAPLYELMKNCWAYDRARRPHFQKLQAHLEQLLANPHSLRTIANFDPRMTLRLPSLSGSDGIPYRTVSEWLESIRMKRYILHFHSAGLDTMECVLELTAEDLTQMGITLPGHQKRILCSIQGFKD
Number first, unit second: that is the form wanted.

Study these solved cases before continuing.
# inhibition at 1 µM (molecule: `Cc1nc(NC(=O)N2CCC[C@H]2C(N)=O)sc1-c1ccnc(C(C)(C)C(F)(F)F)c1` ) is -3.59%

Documented inhibition at 1 µM of `CN1CCN(c2ccc(C(=O)Nc3n[nH]c4ccc(Cc5cc(F)cc(F)c5)cc34)c(NC3CCOCC3)c2)CC1` : 88%

Given item `CCN1CCN(c2ccc(Nc3cc(N(C)C(=O)Nc4c(Cl)c(OC)cc(OC)c4Cl)ncn3)cc2)CC1` , the value recorded as its inhibition at 1 µM is -2%

---
Recorded result, `O=C(Nc1cnn2ccc(N3CCC[C@@H]3c3cc(F)ccc3F)nc12)N1CC[C@H](O)C1` , inhibition at 1 µM: -2.54%

Form: molecule = `C[C@H](Nc1ncnc2nc[nH]c12)c1cc2cccc(Cl)c2c(=O)n1-c1ccccc1` ; inhibition at 1 µM = -7%

The reported value for `COc1ccc(CN2C3CC2CN(c2ccc(-c4cc(OCC(C)(C)O)cn5ncc(C#N)c45)cn2)C3)cn1` in terms of inhibition at 1 µM is 79%

Reported inhibition at 1 µM for `CCN1C(=O)N(c2c(F)c(OC)cc(OC)c2F)Cc2cnc3[nH]c(CN4CCOCC4)cc3c21` was -4%

Looking up `Cn1cnc2c(F)c(Nc3ccc(Br)cc3F)c(C(=O)NOCCO)cc21` , I see its inhibition at 1 µM listed as 4%

inhibition at 1 µM reported for this molecule `C[C@H]1Oc2cc(cnc2N)-c2c(nn(C)c2C#N)CN(C)C(=O)c2ccc(F)cc21` : 73%

`CO[C@]1(C(=O)N[C@@H](C)c2ccc(-n3cc(F)cn3)nc2)CC[C@H](c2nc(C)cc(Nc3cc(C)[nH]n3)n2)CC1` yielded inhibition at 1 µM of 66%

Per the record, `COc1cc2ncnc(Nc3ccc(F)c(Cl)c3)c2cc1NC(=O)/C=C/CN1CCCCC1` has inhibition at 1 µM of 79%

====

Measured IC50 values are reported for all entries that follow.
test system: 134 cancer cell lines; experiment: Cell viability assay (ATPlite, 72 hours), IC50 on cancer cell line panel; conditions: Homo sapiens, HL-60, read-out: IC50 in cell proliferation assay
Please give a number only; it is taken to be in µM.

For record `C[C@@H](Oc1cc(-c2cnn(C3CCNCC3)c2)cnc1N)c1c(Cl)ccc(F)c1Cl` the listed IC50 is 1.42

New cases:
Short answer for `C[C@H]1Oc2cc(cnc2N)-c2c(nn(C)c2C#N)CN(C)C(=O)c2ccc(F)cc21` : IC50 was 28.1

====

tested on: 134 cancer cell lines; assay: Cell viability assay (ATPlite, 72 hours), IC50 on cancer cell line panel; details: Homo sapiens, HEC-1B, read-out: IC50 in cell proliferation assay
Value type: IC50 (nM)
Expressed in nM, but write only the number.

Reported IC50 ( `CCn1c(=O)c(-c2cc(NC(=O)Nc3ccccc3)c(F)cc2Br)cc2cnc(NC)cc21` ) = 426
